Reference for the values: patent US11970498B2

- TEST TARGET: CDK2/Cyclin E (Homo sapiens, UniProt P24941)
- RUN DESCRIPTION: CDK2/Cyclin E biochemical phosphorylation assay (Caliper mobility shift)
- CONDITION DESCRIPTION: apparent IC50; 1.0 mM ATP or ATP Km; 1.25 nM enzyme; 25° C.; read-out: CDK2/cyclin E1 IC50
pIC50: −log10 of the molar value.
Entries and their pIC50

// worked examples, pIC50 included
[[record]]
compound = "C[C@@H](O)c1nn(CC2CCOCC2)c2nc(Nc3cc(OC(F)F)[nH]n3)cnc12 (single isomer, unassigned) [Example 176]"
result = "≥ 8.00"

[[record]]
compound = "FC(F)Oc1cc(Nc2cnc3cnn([C@@H](c4cccnc4)C4CC4)c3n2)n[nH]1 (single isomer, unassigned) [Example 148]"
result = "≥ 8.00"

[[record]]
compound = "Cc1ccncc1Cn1ncc2ncc(Nc3cc(OC(F)F)[nH]n3)nc21"
result = "7.00 to 7.52"


Ask: Look at this compound and give its reported pIC50. FC(F)Oc1cc(Nc2cnc3cnn(C4CCOCC4)c3n2)n[nH]1
Result: ≥ 8.00

Ask: // returns reported pIC50 for input CC1(Cn2ncc3ncc(Nc4cc(OC(F)F)[nH]n4)nc32)CC1
Result: 7.70 to 8.00

Ask: # pIC50 lookup, item [2H]C([2H])(C)n1ncc2ncc(Nc3cc(OC(F)F)[nH]n3)nc21
Result: 7.00 to 7.52

Ask: Item under review: COc1cc(Nc2cnc3cnn(CC4C5COCC54)c3n2)n[nH]1 (centres unmarked) . Reported pIC50?
Result: 7.52 to 7.70

Ask: // returns reported pIC50 for input C[C@@H](c1cc(Cl)ccn1)n1ncc2ncc(Nc3cc(OC(F)F)[nH]n3)nc21 (single isomer, unassigned) [Example 188]
Result: 7.00 to 7.52

====

- TEST TARGET: CDK1/Cyclin B1, GST-tag (Homo sapiens, UniProt P06493)
- Construct: GST
- Sequence (P06493 whole entry): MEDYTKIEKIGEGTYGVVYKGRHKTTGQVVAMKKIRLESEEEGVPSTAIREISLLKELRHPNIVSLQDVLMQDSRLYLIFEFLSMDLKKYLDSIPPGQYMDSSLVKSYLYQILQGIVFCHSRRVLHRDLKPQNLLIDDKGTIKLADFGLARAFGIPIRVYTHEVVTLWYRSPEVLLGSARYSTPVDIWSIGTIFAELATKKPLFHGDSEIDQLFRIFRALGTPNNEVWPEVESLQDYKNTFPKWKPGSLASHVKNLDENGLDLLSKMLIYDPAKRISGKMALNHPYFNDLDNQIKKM
- Sequence (P14635 whole entry partner): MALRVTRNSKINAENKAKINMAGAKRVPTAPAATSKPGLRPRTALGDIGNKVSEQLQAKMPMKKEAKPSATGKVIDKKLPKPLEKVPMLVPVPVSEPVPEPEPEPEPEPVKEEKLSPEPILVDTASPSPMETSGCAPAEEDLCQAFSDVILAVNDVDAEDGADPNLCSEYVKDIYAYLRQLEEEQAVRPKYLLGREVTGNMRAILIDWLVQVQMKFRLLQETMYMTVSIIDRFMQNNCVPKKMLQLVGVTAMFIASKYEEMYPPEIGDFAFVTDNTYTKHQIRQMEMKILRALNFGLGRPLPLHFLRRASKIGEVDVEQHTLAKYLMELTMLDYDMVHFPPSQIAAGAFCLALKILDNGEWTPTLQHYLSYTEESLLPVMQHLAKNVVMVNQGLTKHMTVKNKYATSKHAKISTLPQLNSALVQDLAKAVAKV
- RUN DESCRIPTION: CDK1/Cyclin B1 biochemical phosphorylation assay (Caliper mobility shift)
- CONDITION DESCRIPTION: apparent IC50; 1.0 mM ATP or ATP Km; 1.5 nM enzyme; 25° C.
pIC50: −log10 of the molar value.
MEASURE: pIC50

Study these solved cases before continuing.
[[record]]
molecule = "FC(F)Oc1cc(Nc2cnc3cnn(C[C@H]4C[C@@H]5[C@H](C4)C5(F)F)c3n2)n[nH]1"
result = "> 7.00"

[[record]]
molecule = "FC(F)Oc1cc(Nc2cnc3cnn(C[C@H]4C[C@@H]4F)c3n2)n[nH]1 (single isomer, unassigned) [Example 159]"
result = "≤ 6.30"

[[record]]
molecule = "FC(F)Oc1cc(Nc2cnc3cnn([C@H](c4ccccn4)C4CC4)c3n2)n[nH]1"
result = "≤ 6.30"


With those in mind, consider the next molecule.
Ask: I'm curious: which pIC50 was measured for O[C@H]1CC[C@@H](n2ncc3ncc(Nc4cc(OC(F)F)[nH]n4)nc32)C1 (single isomer, unassigned) [Example 208] tested on CDK1/Cyclin B1, GST-tag (Homo sapiens, UniProt P06493)?
Result: ≤ 6.30

====

- TEST TARGET: CDK2/Cyclin E (Homo sapiens, UniProt P24941)
- RUN DESCRIPTION: CDK2/Cyclin E biochemical phosphorylation assay (Caliper mobility shift)
- CONDITION DESCRIPTION: apparent IC50; 1.0 mM ATP or ATP Km; 1.25 nM enzyme; 25° C.; read-out: CDK2/cyclin E1 IC50
MEASURE: IC50

Solved cases below.
[[record]]
compound = "COc1cc(Nc2cnc3cnn(C[C@H]4C[C@@H]4C#N)c3n2)n[nH]1 (single isomer, unassigned) [Example 197]"
result = "20 to 30 nM"

[[record]]
compound = "C[C@@H](c1ccccn1)n1ncc2ncc(Nc3cc(OC(F)F)[nH]n3)nc21 [Example 4]"
result = "≤ 10 nM"

[[record]]
compound = "C[C@@H]([C@H]1CCCOC1)n1ncc2ncc(Nc3cc(OC(F)F)[nH]n3)nc21 (single isomer, unassigned) [Example 216]"
result = "10 to 20 nM"


Turning now to a further record.
Ask: Using the record for FC(F)Oc1cc(Nc2cnc3cnn(C[C@H]4[C@@H]5COC[C@@H]54)c3n2)n[nH]1 [Example 81] , report its IC50.
Result: ≤ 10 nM

====

# reported IC50; entries follow
- TEST TARGET: CDK1/Cyclin B1, GST-tag (Homo sapiens)
- Construct: GST
- RUN DESCRIPTION: CDK1/Cyclin B1 biochemical phosphorylation assay (Caliper mobility shift)
- CONDITION DESCRIPTION: apparent IC50; 1.0 mM ATP or ATP Km; 1.5 nM enzyme; 25° C.

Study these solved cases before continuing.
[[record]]
compound = "C[C@@H]([C@H]1CCCOC1)n1ncc2ncc(Nc3cc(OC(F)F)[nH]n3)nc21 (single isomer, unassigned) [Example 215]"
result = "< 100 nM"

[[record]]
compound = "CC1(C)C[C@H](Cn2ncc3ncc(Nc4cc(OC(F)F)[nH]n4)nc32)C(=O)N1 (single isomer, unassigned) [Example 184]"
result = "≥ 500 nM"

[[record]]
compound = "C[C@@H](O)c1nn(CC2CCOCC2)c2nc(Nc3cc(OC(F)F)[nH]n3)cnc12 (single isomer, unassigned) [Example 175]"
result = "100 to 500 nM"


Ask: May I ask what IC50 has been recorded for FC(F)Oc1cc(Nc2cnc3cnn(CC4(F)CCOCC4)c3n2)n[nH]1 [Example 112] ?
Result: ≥ 500 nM

Ask: Look at this compound and give its reported IC50. COc1cc(Nc2cnc3cnn(C[C@H]4CCCOC4)c3n2)n[nH]1 [Example 140]
Result: ≥ 500 nM

Ask: Fill in: IC50 of FC[C@H](c1ccccn1)n1ncc2ncc(Nc3cc(OC(F)F)[nH]n3)nc21 (single isomer, unassigned) [Example 16] is ___
Result: ≥ 500 nM

Ask: Entry FC(F)Oc1cc(Nc2cnc3cnn(C[C@@H]4CC45CC5)c3n2)n[nH]1 (racemic) [Example 109] : reported IC50 = ?
Result: 100 to 500 nM

Ask: What IC50 value was documented for this compound, FC(F)Oc1cc(Nc2cnc3cnn(C[C@H]4[C@@H]5COC[C@@H]54)c3n2)n[nH]1 [Example 81] ?
Result: ≥ 500 nM

Ask: Entry FC[C@@H](C1CCOCC1)n1ncc2ncc(Nc3cc(OC(F)F)[nH]n3)nc21 (single isomer, unassigned) [Example 31] has what IC50?
Result: < 100 nM

Ask: Would you kindly share the measured IC50 for [2H]C([2H])(C1CCOCC1)n1ncc2ncc(Nc3cc(OC(F)F)[nH]n3)nc21 [Example 226] ?
Result: 100 to 500 nM

Ask: Consider the compound shown here: FC(F)Oc1cc(Nc2cnc3cnn(C[C@@]4(F)CCOC4)c3n2)n[nH]1 (single isomer, unassigned) [Example 167] What is its recorded IC50?
Result: ≥ 500 nM

Ask: Using the record for FC(F)Oc1cc(Nc2cnc3cnn(Cc4cscn4)c3n2)n[nH]1 [Example 52] , report its IC50.
Result: ≥ 500 nM

Ask: Returns the measured IC50 for the input compound. Input: O[C@H]1CC[C@@H](n2ncc3ncc(Nc4cc(OC(F)F)[nH]n4)nc32)C1 (single isomer, unassigned) [Example 209]
Result: ≥ 500 nM

Ask: # input compound: COc1cc(Nc2cnc3cnn([C@@H](C)C4COC4)c3n2)n[nH]1 [Example 71] ; wanted: its IC50
Result: ≥ 500 nM

Ask: Any idea what its IC50 is? The compound is CC[C@@H]([C@@H](C)O)n1ncc2ncc(Nc3cc(OC(F)F)[nH]n3)nc21 (single isomer, unassigned) [Example 201]
Result: ≥ 500 nM

Ask: Form field: reported IC50 of CC1(Cn2ncc3ncc(Nc4cc(OC(F)F)[nH]n4)nc32)CCOCC1 [Example 110]
Result: 100 to 500 nM

Ask: For C[C@@H](O)c1nn([C@@H](C)C2CCOCC2)c2nc(Nc3cc(OC(F)F)[nH]n3)cnc12 (single isomer, unassigned) [Example 182] , what is its reported IC50?
Result: ≥ 500 nM

Ask: What measured IC50 goes with C[C@@H](O)c1nn([C@@H](C)C2CCOCC2)c2nc(Nc3cc(OC(F)F)[nH]n3)cnc12 (single isomer, unassigned) [Example 181] ?
Result: ≥ 500 nM

Ask: Please look up its IC50: C[C@H](C1CC1)n1ncc2ncc(Nc3cc(OC(F)F)[nH]n3)nc21 [Example 55]
Result: ≥ 500 nM

Ask: Name the reported IC50 value associated with the compound O[C@H]1C[C@H](Cn2ncc3ncc(Nc4cc(OC(F)F)[nH]n4)nc32)C1 [Example 220]
Result: ≥ 500 nM

Ask: Which IC50 value is on record for FC(F)Oc1cc(Nc2cnc3cnn(CC4CC4)c3n2)n[nH]1 [Example 80] ?
Result: ≥ 500 nM

Ask: For C[C@]1(Cn2ncc3ncc(Nc4cc(OC(F)F)[nH]n4)nc32)CCOC1 (single isomer, unassigned) [Example 166] , what is its reported IC50?
Result: 100 to 500 nM

Ask: Entry CC1(C)C[C@H](Cn2ncc3ncc(Nc4cc(OC(F)F)[nH]n4)nc32)C(=O)N1 (single isomer, unassigned) [Example 185] has what IC50?
Result: ≥ 500 nM

Ask: Given the entry FC[C@H](c1ccccc1)n1ncc2ncc(Nc3cc(OC(F)F)[nH]n3)nc21 (single isomer, unassigned) [Example 90] , report its measured IC50.
Result: ≥ 500 nM

Ask: Which IC50 is reported for this compound? FC(F)Oc1cc(Nc2cnc3cnn(CC4(C(F)F)CCOCC4)c3n2)n[nH]1 [Example 122]
Result: ≥ 500 nM

Ask: Query (compound): C[C@@H]1C[C@H](Cn2ncc3ncc(Nc4cc(OC(F)F)[nH]n4)nc32)C[C@H](C)O1 [Example 65] ; field requested: IC50
Result: < 100 nM
